biological target: UniProt:P49137; assay: MK2 degradation in human SW1353 cells (MSD, 24 h); type: cell-based; parameters: endogenous in cells; host or cells: SW-1353 (ATCC HTB-94); conditions: read-out: MK2 MSD SW1353 degradation 24 h GMean External Abs DC50
QUANTITY_MEASURED: DC50

Cn1c(=O)n(C2CCC(=O)NC2=O)c2cccc(N3CC(N4CCN(c5ccc(-c6cc(-c7cc8c([nH]7)C7(CCCC7)CNC8=O)ccn6)cc5)CC4)C3)c21 (stereo not shown) [Compound I-418]	< 1 nM
C[C@@H]1CNc2c(sc3ccc4nc(-c5cccc(N6CCN(CCCCCc7cccc8c7n(C)c(=O)n8C7CCC(=O)NC7=O)CC6)c5)ccc4c23)C(=O)N1 (stereo partly shown) [Compound I-94]	1 to 10 nM
Cn1c(=O)n(C2CCC(=O)NC2=O)c2cccc(N3CCC(CN4CCC5(CC4)CNC(=O)c4c5[nH]c5c4CCc4cnc(-c6ccccc6F)cc4-5)CC3)c21 (stereo not shown) [Compound I-316]	> 100 nM

Input C[C@@H]1CNc2c(sc3ccc4nc(N5CC6CCC(C5)N6CC5CCN(c6cccc7c6n(C)c(=O)n7C6CCC(=O)NC6=O)CC5)ccc4c23)C(=O)N1 (stereo partly shown) [Compound I-436] . Output DC50: > 100 nM

====

biological target: MK2 (Homo sapiens); experiment: MK2 degradation in human SW1353 cells (MSD, 24 h); assay type: cell-based; set-up: endogenous in cells; host or cells: SW-1353 (ATCC HTB-94); settings: read-out: MK2 MSD SW 1353 24 h Dmax %
# Dmax values compiled below

O=C1CCN(c2cncc3c(N4CCC(CN5CCN(c6ccc(-c7cc(-c8cc9c([nH]8)CCNC9=O)ccn7)cc6)CC5)CC4)cccc23)C(=O)N1 [Compound I-210]	> 75%

Input C[C@@H]1CNc2c(sc3ccc4nc(N5CCC(CN6CC7(C6)CN(c6ccc8c(c6)n(C)c(=O)n8C6CCC(=O)NC6=O)C7)CC5)ccc4c23)C(=O)N1 (some centres unmarked) [Compound I-439] . Output Dmax: > 75%

Input Cn1c(=O)n(C2CCC(=O)NC2=O)c2cccc(CCN3CCN(c4ccc(-c5cc(-c6cc7c([nH]6)C6(CC6)CNC7=O)ccn5)c(F)c4)CC3)c21 (centres unmarked) [Compound I-179] . Output Dmax: > 75%

Input C[C@@H]1CNc2c(sc3ccc4nc(-c5ccc(N6CCN(CCCc7cccc8c7n(C)c(=O)n8C7CCC(=O)NC7=O)CC6)nc5)ccc4c23)C(=O)N1 (some centres unmarked) [Compound I-288] . Output Dmax: > 75%

====

# DC50 values compiled below
biological target: MK2 (Homo sapiens, UniProt P49137); assay: MK2 degradation in human THP-1 monocytic cells (MSD, 24 h); type: cell-based; parameters: endogenous in cells; settings: THP-1 cells, read-out: MK2 MSD THP-1 degradation 24 h GMean External Abs DC50
Sequence (P49137 whole entry): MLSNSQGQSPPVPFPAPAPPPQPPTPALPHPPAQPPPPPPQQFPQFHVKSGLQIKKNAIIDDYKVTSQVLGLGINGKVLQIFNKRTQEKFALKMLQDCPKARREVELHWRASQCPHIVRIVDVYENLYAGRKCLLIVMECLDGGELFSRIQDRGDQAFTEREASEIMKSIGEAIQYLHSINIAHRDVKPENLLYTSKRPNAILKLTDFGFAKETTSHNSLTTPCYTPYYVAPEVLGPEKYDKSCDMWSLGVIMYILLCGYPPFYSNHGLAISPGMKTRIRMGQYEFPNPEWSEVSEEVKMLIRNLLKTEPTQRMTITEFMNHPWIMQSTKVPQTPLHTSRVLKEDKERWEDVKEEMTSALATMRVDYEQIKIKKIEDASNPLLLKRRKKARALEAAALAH

Reference set, count: 7
Cn1c(=O)n(C2CCC(=O)NC2=O)c2cccc(N3CCC(CN4CCN(c5ccc(-c6cc(-c7cc8c([nH]7)CCNC8=O)ccn6)cc5)CC4)CC3)c21 (centres unmarked) [Compound I-120]	1 to 10 nM
O=C1CCC(N2Cc3cc(N4CCN(CC5CCN(c6ccc(F)c(-c7cc(-c8cc9c([nH]8)CCNC9=O)ccn7)c6)CC5)CC4)ccc3C2=O)C(=O)N1 (centres unmarked) [Compound I-301]	> 100 nM
C[C@@H]1CNc2c(sc3ccc4nc(-c5cccc(C6CCN(CCN7CCC(CCc8cccc9c8n(C)c(=O)n9C8CCC(=O)NC8=O)CC7)CC6)c5)ccc4c23)C(=O)N1 (some centres unmarked) [Compound I-296]	1 to 10 nM
C[C@@H]1CNc2c(sc3ccc4nc(-c5ccc(N6CCC(CN7CCN(c8ccc9c(c8)n(C)c(=O)n9C8CCC(=O)NC8=O)CC7)CC6)cc5)ccc4c23)C(=O)N1 (some centres unmarked) [Compound I-314]	< 1 nM
C[C@@H]1CNc2c(sc3ccc4nc(-c5ccc(N6CCN(CCCc7ccc8c(c7)n(C)c(=O)n8C7CCC(=O)NC7=O)CC6)cc5)ccc4c23)C(=O)N1 (some centres unmarked) [Compound I-173]	< 1 nM
C[C@@H]1CNc2c(sc3ccc4nc(-c5ccc(N6CCC(CCN7CCN(c8ccc9c(c8)n(C)c(=O)n9C8CCC(=O)NC8=O)CC7)CC6)cc5)ccc4c23)C(=O)N1 (some centres unmarked) [Compound I-131]	< 1 nM
COc1cc(-c2ccc3c(ccc4sc5c(c43)NC[C@@H](C)NC5=O)n2)cc(N2CCN(CC3CCN(c4ccc5c(c4)n(C)c(=O)n5C4CCC(=O)NC4=O)CC3)CC2)c1 (some centres unmarked) [Compound I-239]	< 1 nM

Input Cn1c(=O)n(C2CCC(=O)NC2=O)c2cccc(N3CCC(CN4CCN(c5ccc(-c6cc(-c7cc8c([nH]7)CCNC8=O)ccn6)cn5)CC4)CC3)c21 (centres unmarked) [Compound I-138] . Output DC50: < 1 nM

====

biological target: UniProt P49137; assay: MK2 degradation in human THP-1 monocytic cells (MSD, 24 h); format: cell-based; parameters: endogenous in cells; details: THP-1, THP-1 cells
QUANTITY_MEASURED: Dmax

Reference set, count: 6
O=C1CCC(N2Cc3cc(N4CCN(CC5CCN(c6ccc(-c7cc(-c8cc9c([nH]8)CCNC9=O)ccn7)c(F)c6)CC5)CC4)ccc3C2=O)C(=O)N1 (centres unmarked)	50 to 75%
C[C@@H]1CNc2c(sc3ccc4nc(-c5ccc(N6CCC(CN7CCC(c8cccc9c8n(C)c(=O)n9C8CCC(=O)NC8=O)CC7)CC6)cc5F)ccc4c23)C(=O)N1 (some centres unmarked)	> 75%
Cn1c(=O)n(C2CCC(=O)NC2=O)c2cccc(CCN3CCN(c4ccc(-c5nccc(-c6cc7c([nH]6)C6(CC6)CNC7=O)c5F)cc4)CC3)c21 (centres unmarked)	< 50%
C[C@@H]1CNc2c(sc3ccc4nc(-c5ccc(N6CCN(CCCCCc7ccc8c(c7)n(C)c(=O)n8C7CCC(=O)NC7=O)CC6)cc5)ccc4c23)C(=O)N1 (some centres unmarked)	> 75%
C[C@@H]1CNc2c(sc3ccc4nc(-c5cccc(N6CCC(CN7CCN(CCc8cccc9c8n(C)c(=O)n9C8CCC(=O)NC8=O)CC7)CC6)c5)ccc4c23)C(=O)N1 (some centres unmarked)	> 75%
C[C@@H]1CNc2c(sc3ccc4nc(-c5cnc(N6CCN(CC7CCN(c8cccc9c8n(C)c(=O)n9C8CCC(=O)NC8=O)CC7)CC6)nc5)ccc4c23)C(=O)N1 (some centres unmarked)	> 75%

Input C[C@@H]1CNc2c(sc3ccc4nc(-c5ccc(N6CCN(CCCCOc7ccc(C8CCC(=O)NC8=O)cc7)CC6)nc5)ccc4c23)C(=O)N1 (some centres unmarked) . Output Dmax: > 75%

Input Cn1c(=O)n(C2CCC(=O)NC2=O)c2ccc(N3CCC(CN4CCN(c5ccc(-c6cc(-c7cc8c([nH]7)C7(CCCC7)CNC8=O)ccn6)cc5)CC4)CC3)cc21 (centres unmarked) . Output Dmax: > 75%

Input C[C@@H]1CNc2c(sc3ccc4nc(-c5cc(N6CCC(CN7CCC(c8cccc9c8n(C)c(=O)n9C8CCC(=O)NC8=O)CC7)CC6)ccc5F)ccc4c23)C(=O)N1 (some centres unmarked) . Output Dmax: > 75%

Input C[C@@H]1CNc2c(sc3ccc4nc(-c5ccc(N6CCN(C(=O)COCCOCCOCCOCCc7ccc8c(c7)n(C)c(=O)n8C7CCC(=O)NC7=O)CC6)cc5)ccc4c23)C(=O)N1 (some centres unmarked) . Output Dmax: > 75%

Input Cn1c(=O)n(C2CCC(=O)NC2=O)c2ccc(N3CCC(CN4CCN(c5ccc(-c6nccc(-c7cc8c([nH]7)CCNC8=O)n6)cc5)CC4)CC3)cc21 (centres unmarked) . Output Dmax: > 75%

Input Cn1c(=O)n(C2CCC(=O)NC2=O)c2cccc(N3CC(N4CCN(c5ccc(-c6cc(-c7cc8c([nH]7)C7(CCCC7)CNC8=O)ccn6)cc5)CC4)C3)c21 (centres unmarked) . Output Dmax: > 75%

Input C[C@@H]1CNc2c(sc3ccc4nc(-c5cccc(C#CCCNC(=O)CCCCCCCc6cccc7c6n(C)c(=O)n7C6CCC(=O)NC6=O)c5)ccc4c23)C(=O)N1 (some centres unmarked) . Output Dmax: > 75%

Input C[C@@H]1CNc2c(sc3ccc4nc(N5CCCN(CC6CCN(c7cccc8c7n(C)c(=O)n8C7CCC(=O)NC7=O)CC6)CC5)ccc4c23)C(=O)N1 (some centres unmarked) . Output Dmax: < 50%

====

molecular target: MK2 (Homo sapiens, UniProt P49137); test: MK2 degradation in human SW1353 cells (MSD, 24 h); assay type: cell-based; parameters: endogenous in cells; host or cells: SW-1353 (ATCC HTB-94); details: read-out: MK2 MSD SW1353 degradation 24 h GMean External Abs DC50
QUANTITY_MEASURED: DC50

Reference set, count: 5
Cn1c(=O)n(C2CCC(=O)NC2=O)c2ccc(CCCN3CCN(c4ccc(-c5cc(-c6cc7c([nH]6)C6(CC6)CNC7=O)ccn5)cc4)CC3)cc21 (stereo not shown) [Compound I-242]	1 to 10 nM
C[C@@H]1CNc2c(sc3ccc4nc(-c5ccc(N6CCC(CN7CCC(c8cccc9c8n(C)c(=O)n9C8CCC(=O)NC8=O)CC7)CC6)cc5)ccc4c23)C(=O)N1 (stereo partly shown) [Compound I-98]	< 1 nM
C[C@@H]1CNc2c(sc3ccc4nc(-c5cccc(N6CCC(CN7CCN(c8ccc9c(c8)CN(C8CCC(=O)NC8=O)C9=O)CC7)CC6)c5)ccc4c23)C(=O)N1 (stereo partly shown) [Compound I-304]	1 to 10 nM
C[C@@H]1CNc2c(sc3ccc4nc(-c5cncc(N6CCN(CCCc7ccc8c(c7)n(C)c(=O)n8C7CCC(=O)NC7=O)CC6)c5)ccc4c23)C(=O)N1 (stereo partly shown) [Compound I-157]	< 1 nM
C[C@@H]1CN(C)c2c(sc3ccc4nc(-c5ccc(N6CCN(CC7CCN(c8ccc9c(c8)n(C)c(=O)n9C8CCC(=O)NC8=O)CC7)CC6)nc5)ccc4c23)C(=O)N1 (stereo partly shown) [Compound I-268]	1 to 10 nM

Input C[C@@H]1CNc2c(sc3ccc4nc(-c5ccc(CNC(=O)CCCCCCCCCc6cccc7c6n(C)c(=O)n7C6CCC(=O)NC6=O)cc5)ccc4c23)C(=O)N1 (stereo partly shown) [Compound I-86] . Output DC50: 1 to 10 nM

Input Cn1c(=O)n(C2CCC(=O)NC2=O)c2ccc(N3CCC(CN4CCN(c5cc(-c6ccc7cc[nH]c7c6)cc(-n6cc(-c7ccc8c(c7)CCNC8=O)c(N)n6)c5)CC4)CC3)cc21 (stereo not shown) [Compound I-461] . Output DC50: 1 to 10 nM

Input C[C@@H]1CN(C)c2c(sc3ccc4nc(-c5ccc(N6CCN(CCc7cccc8c7n(C)c(=O)n8C7CCC(=O)NC7=O)CC6)nc5)ccc4c23)C(=O)N1 (stereo partly shown) [Compound I-414] . Output DC50: < 1 nM

Input C[C@@H]1CNc2c(sc3ccc4nc(-c5cc(N6CCC(CN7CCC(c8cccc9c8n(C)c(=O)n9C8CCC(=O)NC8=O)CC7)CC6)ccc5F)ccc4c23)C(=O)N1 (stereo partly shown) [Compound I-284] . Output DC50: 1 to 10 nM

Input C[C@@H]1CNc2c(sc3ccc4nc(-c5ccc(N6CCN(CCCCCCCCc7cccc8c7n(C)c(=O)n8C7CCC(=O)NC7=O)CC6)cc5)ccc4c23)C(=O)N1 (stereo partly shown) [Compound I-170] . Output DC50: 1 to 10 nM
